Reference source for all entries: ChEMBL document CHEMBL1149387

Attribute: AUC
# test-summary: AUC in orally dosed rat
# Assay type: ADME, organism-based
# details: plasma, po
Hi! Could you send only the number? It should be in µM·h, unit omitted.

Would you please look over these solved cases?
compound	AUC, µM·h
CCCC(NC(=O)[C@@H]1C[C@@H]2CN1C(=O)[C@H](C1CCCCC1)NC(=O)Cc1cccc(c1)OCCC(C)(C)O2)C(=O)C(N)=O (some centres undefined)	0.3
CCC[C@H](NC(=O)[C@@H]1C[C@@H]2CN1C(=O)[C@H](C1CCCCC1)NC(=O)Cc1cccc(c1)OCCCO2)C(=O)C(=O)NCC(=O)N[C@H](C(=O)N(C)C)c1ccccc1	1.5
C=CCNC(=O)C(=O)C(CCC)NC(=O)[C@@H]1C[C@@H]2CN1C(=O)[C@H](C1CCCCC1)NC(=O)Cc1cccc(c1)OCCC(C)(C)O2 (some centres undefined)	26.3

Now, please, on to the next compound.
Identify measured AUC associated with CCCC(NC(=O)[C@@H]1C[C@@H]2CN1C(=O)[C@H](C1CCCCC1)NC(=O)Cc1cccc(c1)OCCC(C)(C)O2)C(=O)C(=O)NCC(=O)N[C@H](C(=O)N(C)C)c1ccccc1 (some centres undefined)
0.46

====

# test-summary: Oral bioavailability in rat
# Format: ADME, organism-based
# details: in vivo
Attribute: bioavailability
Hi! Could you send only the number? It should be in %, unit omitted.

Would you please look over these solved cases?
molecule	unit-label	bioavailability
C=CCNC(=O)C(=O)C(CCC)NC(=O)[C@@H]1C[C@@H]2CN1C(=O)[C@H](C1CCCCC1)NC(=O)Cc1cccc(c1)OCCC(C)(C)O2 (stereo partly drawn)	%	97
CCC[C@H](NC(=O)[C@@H]1C[C@@H]2CN1C(=O)[C@H](C1CCCCC1)NC(=O)Cc1cccc(c1)OCCCO2)C(=O)C(=O)NCC(=O)N[C@H](C(=O)N(C)C)c1ccccc1	%	3

Now, please, on to the next molecule.
Identify measured bioavailability associated with CCCC(NC(=O)[C@@H]1C[C@@H]2CN1C(=O)[C@H](C1CCCCC1)NC(=O)Cc1cccc(c1)OCCC(C)(C)O2)C(=O)C(=O)NCC(=O)N[C@H](C(=O)N(C)C)c1ccccc1 (stereo partly drawn)
2.1

====

# test-summary: AUC in iv dosed rat
# Format: ADME, organism-based
# details: plasma
measured-metric: AUC (µM·h)
Hi! Could you send only the number? It should be in µM·h, unit omitted.

Would you please look over these solved cases?
molecule	AUC, µM·h
C=CCNC(=O)C(=O)C(CCC)NC(=O)[C@@H]1C[C@@H]2CN1C(=O)[C@H](C1CCCCC1)NC(=O)Cc1cccc(c1)OCCC(C)(C)O2 (stereo partly drawn)	13.6
CCC[C@H](NC(=O)[C@@H]1C[C@@H]2CN1C(=O)[C@H](C1CCCCC1)NC(=O)Cc1cccc(c1)OCCCO2)C(=O)C(=O)NCC(=O)N[C@H](C(=O)N(C)C)c1ccccc1	23.1

Now, please, on to the next molecule.
Identify measured AUC associated with CCCC(NC(=O)[C@@H]1C[C@@H]2CN1C(=O)[C@H](C1CCCCC1)NC(=O)Cc1cccc(c1)OCCC(C)(C)O2)C(=O)C(=O)NCC(=O)N[C@H](C(=O)N(C)C)c1ccccc1 (stereo partly drawn)
2.2

====

# test-summary: Bioavailability in sc dosed rat
# Type: ADME, organism-based
# details: in vivo
measured-metric: bioavailability (%)
Hi! Could you send only the number? It should be in %, unit omitted.

molecule	measured-metric	recorded-result
CCC[C@H](NC(=O)[C@@H]1C[C@@H]2CN1C(=O)[C@H](C1CCCCC1)NC(=O)Cc1cccc(c1)OCCCO2)C(=O)C(=O)NCC(=O)N[C@H](C(=O)N(C)C)c1ccccc1	bioavailability	90

Now, please, on to the next molecule.
Identify measured bioavailability associated with CCCC(NC(=O)[C@@H]1C[C@@H]2CN1C(=O)[C@H](C1CCCCC1)NC(=O)Cc1cccc(c1)OCCC(C)(C)O2)C(=O)C(=O)NCC(=O)N[C@H](C(=O)N(C)C)c1ccccc1 (some centres not stated)
77
